# assay_notes: Pharmacokinetics in healthy rhesus macaques after nasogastric administration
# recorded_conditions: rhesus monkey, plasma, po, 200 mg/kg, AUCon, Monkey 1, healthy, 200 mg/kg nasogastric
Structures can show the parent of a compound that is named as a salt.
readout: AUC (µM·h)
Form entry: value (µM·h) — number only.

Query string: Identify measured AUC associated with Cc1c(O)cccc1C(=O)N[C@@H](CSc1ccccc1)[C@H](O)CN1C[C@H]2CCCC[C@H]2C[C@H]1C(=O)NC(C)(C)C [nelfinavir, Nelfinavir Mesylate]
Result string: 28.4

---

# assay_notes: Lung distribution study in mouse
# recorded_conditions: male, ICR, po, 750 mg/kg
Structures can show the parent of a compound that is named as a salt.
readout: Kp at 0.5 h
Lab note: record just the number, no unit beside it.

Query string: Identify measured Kp at 0.5 h associated with Cc1c(O)cccc1C(=O)N[C@@H](CSc1ccccc1)[C@H](O)CN1C[C@H]2CCCC[C@H]2C[C@H]1C(=O)NC(C)(C)C [nelfinavir, Nelfinavir Mesylate]
Result string: 2.07
